Test system: EPHA2;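 note: KINOMEscan kinase panel screen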
condition-info: concentration: 1 μM, replicates: in singlicate; n = 1
test-readout: %Inh (%)
Entry rule: numbers only, all in %.

A selection of reference data follows.
In [3]: df
Out[3]:
                                   compound  recorded_measurement
0  Cc1cc(-c2c(-c3ccc(F)cc3)ncn2CCCN2CCOCC2)nc(N)n1 [SB-222517]                     0
1  Cl.O=C(Nc1ccc(Oc2ccc3[nH]c(NC(=O)c4ccco4)nc3c2)cc1)Nc1cc(C(F)(F)F)ccc1F [GW683134]                  95.2
2  Cc1ccc(O)cc1Nc1ccnc2ccc(C(C)(C)C)cc12 [GW856805]                  92.9

Lab book: %Inh of Cc1nn2c(=O)cc(N3CCO[C@H](C)C3)nc2n1Cc1cccc(Cl)c1Cl [GSK2373693] noted as 21

Values from paper PMC5540273
